Experiment: reversal of MRP1-mediated doxorubicin resistance, pilot screen, H69AR cells, doxorubicin co-treatment (AID 601)
Conditions: H69AR cells, CellTiter-Glo, 72 h; compound alone cytotoxicity; at 10 µM

Compound: COc1ccc(C(=O)Nc2ccc(Cl)c(Cl)c2)c(OC)n1
Endpoint Unit: %
viability: 40.5
--
Compound: O=C(NC1=NCCS1)c1ccc2c(c1)C(=O)N(Cc1ccco1)C2=O
Endpoint Unit: %
viability: 93.6
--
Compound: COc1ccc(Cl)cc1C(=O)NCCc1ccc(S(=O)(=O)NC(=O)NC2CCCCC2)cc1
Endpoint Unit: %
viability: 93.5
--
Compound: CC1Oc2ccccc2N(Cc2ccccc2Cl)C1=O (stereo not given)
Endpoint Unit: %
viability: 89.1
--
Compound: NCCCCCc1nnc(SC/C=C/c2ccccc2)o1
Endpoint Unit: %
viability: 89.9
--
Compound: CCN(CC(=O)NC(=O)NCc1ccco1)Cc1nc2ccccc2c(=O)[nH]1
Endpoint Unit: %
viability: 79.7
--
Compound: CCOc1ccccc1-c1nc(-c2ccc(C)nc2OC)no1
Endpoint Unit: %
viability: 81.9
--
Compound: Cc1cc(C)n(S(=O)(=O)c2cc(C(=O)O)c(Cl)cc2Cl)n1
Endpoint Unit: %
viability: 82.6
--
Compound: CO[C@H]1C[C@@H]2CC[C@@H](C)[C@@](O)(O2)C(=O)C(=O)N2CCCC[C@H]2C(=O)O[C@H]([C@H](C)C[C@@H]2CC[C@@H](O)[C@H](OC)C2)CC(=O)[C@H](C)C=C(C)[C@@H](O)[C@@H](OC)C(=O)[C@H](C)C[C@H](C)C=CC=CC=C1C
Endpoint Unit: %
viability: 67.1
--
Compound: CC1CCc2cc(F)cc3c(O)c(C(=O)Nc4cnccn4)c(=O)n1c23 (stereo not given)
Endpoint Unit: %
viability: 92.8
--
Compound: CC(=O)N1CCN(c2ccc(NC(=O)c3ccc(C(C)(C)C)cc3)cc2)CC1
Endpoint Unit: %
viability: 44.2
--
Compound: Brc1ccc(C2=Nn3c(nnc3-c3ccncc3)SC2)cc1
Endpoint Unit: %
viability: 77.1
--
Compound: O=C(CSc1nnc(Cc2ccccc2)n1-c1cccc(Cl)c1)N1CCOCC1
Endpoint Unit: %
viability: 85.6
--
Compound: COc1ccc(C)cc1S(=O)(=O)N(C)CC(=O)Nc1ccc2c(c1)OCO2
Endpoint Unit: %
viability: 89.2
--
Compound: Cc1cc(NS(=O)(=O)Cc2ccccc2)cc(C)c1OCC(=O)N1CCOCC1
Endpoint Unit: %
viability: 94.6
--
Compound: CS(=O)(=O)c1ncc(Cl)c(C(=O)Nc2ccc(N3CCOCC3)cc2)n1
Endpoint Unit: %
viability: 0.715
--
Compound: CCOC(=O)c1sc(NC(=O)CSc2nnc(-c3ccc(OC)cc3)n2CCOC)nc1C
Endpoint Unit: %
viability: 101
--
Compound: Cc1c(NC(=O)c2ccc(COc3ccc4ccccc4c3)o2)c(=O)n(-c2ccccc2)n1C
Endpoint Unit: %
viability: 99
--
Compound: CCCCn1c(CN(C)Cc2ccccc2)nc2c1c(=O)n(C)c(=O)n2C
Endpoint Unit: %
viability: 71.6
--
Compound: Brc1ccc2[nH]c3nc(SCCN4CCOCC4)nnc3c2c1
Endpoint Unit: %
viability: 87

---

Test: reversal of MRP1-mediated doxorubicin resistance, pilot screen, H69AR cells, doxorubicin co-treatment (AID 601)
Settings: H69AR cells, CellTiter-Glo, 72 h; compound alone cytotoxicity; at 10 µM

Given Smiles: Cc1cc2ccccc2c(=O)n1CC(=O)N(C)c1ccc(F)cc1
viability (%): 102

Given Smiles: COC(=O)c1ccc(CSc2nc3ccccc3c(=O)n2Cc2ccco2)o1
viability (%): 84.4

Given Smiles: COc1ccc(NC(=O)COc2ccccc2)c(OC)c1
viability (%): 104

Given Smiles: O=C(C1CCN(S(=O)(=O)c2cnc[nH]2)CC1)N1CCN(c2ncccn2)CC1
viability (%): 102

Given Smiles: O=C(CSc1nnc(SCc2ccc(Cl)cc2)s1)N1CCN(C(=O)c2ccco2)CC1
viability (%): 100

Given Smiles: CCOc1ccccc1N1CC(O)=C(c2nc3ccccc3s2)C1=N
viability (%): 14.5

---

Reported viability values for the following molecules.
Assay: growth inhibitors of H69AR lung tumor, primary screen, human, duplicate replicates (AID 580);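 also: 100% = mean luminescence of untreated wells and 0% = no signal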
Conditions: H69AR lung tumor cells viability, ATP luminescence, 72 h; at 10 µM; stronger effect = lower value

Molecule: COc1ccc(-c2nnc(SCC(=O)Nc3cc(C)on3)n2C)cc1OC
Endpoint Unit: %
viability: 105

Molecule: N#Cc1nc(-c2ccccc2Cl)oc1N1CCOCC1
Endpoint Unit: %
viability: 86.8

Molecule: CCOC(=O)c1cnc(-n2nc(C)cc2C)nc1NC(C)c1ccccc1 (stereo unspecified)
Endpoint Unit: %
viability: 10.1

Molecule: CCNC(=O)C1CC(=O)N(Cc2ccc3c(c2)OCO3)C(=Nc2ccc(OCC)cc2)S1 (stereo unspecified)
Endpoint Unit: %
viability: 66.1

Molecule: Cc1ccc(NC(=O)CSc2nnc(CCCCCNC(=O)OC(C)(C)C)o2)c(C)c1
Endpoint Unit: %
viability: 93.2

Molecule: O=C(NCc1ccco1)c1cc2sccc2n1Cc1ccccc1
Endpoint Unit: %
viability: 71.2

Molecule: c1cc2c(cc1C1CCCN1)OCCCO2 (stereo unspecified)
Endpoint Unit: %
viability: 91.6

Molecule: N#CCCn1cnc2ccccc21
Endpoint Unit: %
viability: 104

Molecule: Cn1c(Cc2ccccc2)nnc1SCC(=O)N1CCOCC1
Endpoint Unit: %
viability: 101

Molecule: O=C(NCCO)c1cc2ccccc2cc1O
Endpoint Unit: %
viability: 97

Molecule: COc1ccc(N(CC(=O)N2CCCCC2)S(=O)(=O)c2ccccc2)c(OC)c1
Endpoint Unit: %
viability: 86.5

Molecule: COc1cc(C(N)=O)ccc1OCc1ccccc1
Endpoint Unit: %
viability: 98.7

Molecule: Cc1cc(C)nc(N(C#N)CC(=O)N2CCC(C(N)=O)CC2)n1
Endpoint Unit: %
viability: 98.6

Molecule: Cc1ccc(CSc2nc3c(c(=O)[nH]2)C(c2ccncc2)C2=C(CCCC2=O)N3)cc1 (stereo unspecified)
Endpoint Unit: %
viability: 97.9

Molecule: COc1ccc(C2=CC(=O)OC3(CCCCC3)O2)cc1
Endpoint Unit: %
viability: 56.5

Molecule: O=C(CSc1nnc(-c2ccccn2)n1Cc1ccccc1)N1CCCC1
Endpoint Unit: %
viability: 98.8

Molecule: CCOC(=O)c1sc(NS(=O)(=O)c2ccc(NC(C)=O)cc2)nc1C
Endpoint Unit: %
viability: 96

Molecule: O=C(Nc1cccc(NC(=O)c2ccco2)c1)c1ccc2c(c1)OCO2
Endpoint Unit: %
viability: 82.4

Molecule: O=C(Nc1nc(-c2cccs2)cs1)c1cccc(S(=O)(=O)N2CCCCC2)c1
Endpoint Unit: %
viability: 66.8

Molecule: O=C(CN1C(=O)c2cccc3cccc1c23)Nc1ccccc1C(=O)NCc1ccco1
Endpoint Unit: %
viability: 78.9

Molecule: C[C@@H]1C[C@H]2[C@@H]3C[C@H](F)C4=CC(=O)C=C[C@]4(C)[C@@]3(F)[C@@H](O)C[C@]2(C)[C@@]1(O)C(=O)COC(=O)C(C)(C)C
Endpoint Unit: %
viability: 79.5

Molecule: Fc1cccc(-c2cc3nc4c(c(N5CCN(c6cnccn6)CC5)n3n2)CCCC4)c1
Endpoint Unit: %
viability: 89.2

Molecule: O=C(NC1CCCCC1)C(c1ccccc1)N(Cc1ccco1)C(=O)Cn1cnc2ccccc21 (stereo unspecified)
Endpoint Unit: %
viability: 78.3

Molecule: CC(CCc1ccccc1)NC(=O)c1ccc(Br)o1 (stereo unspecified)
Endpoint Unit: %
viability: 93.5

Molecule: CC1(C)CC(=O)C2=C(C1)Nc1nc(SCCN3CCOCC3)[nH]c(=O)c1C2c1cccs1 (stereo unspecified)
Endpoint Unit: %
viability: 89.9

Molecule: O=C1CC(c2ccccc2)NC(=O)N1 (stereo unspecified)
Endpoint Unit: %
viability: 98.8

Molecule: O=C(NC1CCS(=O)(=O)C1)OC1CCCCC1 (stereo unspecified)
Endpoint Unit: %
viability: 93.4

Molecule: O=S(=O)(NCc1cn2ccccc2n1)c1cc(F)ccc1F
Endpoint Unit: %
viability: 96.6

Molecule: O=C(CCN1C(=O)c2ccccc2C1=O)N1CCN(C(=O)c2ccccc2)CC1
Endpoint Unit: %
viability: 101

Molecule: Cc1occc1C(=O)Nc1nnc(C2CCCCC2)s1
Endpoint Unit: %
viability: 93.7

Molecule: O=C(Cn1nc(-c2ccc(Cl)cc2)ccc1=O)NCCCN1CCN(Cc2ccccc2)CC1
Endpoint Unit: %
viability: 90.1

Molecule: CC(C)Cc1ccc(C(C)C(=O)O)cc1 (stereo unspecified)
Endpoint Unit: %
viability: 97.8

Molecule: Cc1nc(CNS(=O)(=O)c2cccc(F)c2)cs1
Endpoint Unit: %
viability: 91.4

Molecule: CCOC(=O)c1c(C)oc2ccc(O)c(CN(C)C)c12
Endpoint Unit: %
viability: 87.3

Molecule: CCOC(=O)c1ccc(NC(=O)N2CCN(CCc3ccccc3)CC2)cc1
Endpoint Unit: %
viability: 101

Molecule: CCOC(=O)c1cnn(-c2ncnc3c2cnn3Cc2ccccc2)c1N
Endpoint Unit: %
viability: 17.2

Molecule: O=C(Cc1c[nH]c2ccccc12)N1CCc2ccccc21
Endpoint Unit: %
viability: 80.7

Molecule: C(#Cc1ccccc1)Cn1nnc2ccccc21
Endpoint Unit: %
viability: 83.1

Molecule: CCOC(=O)C1CCCN(c2nc3ccccc3nc2C(C#N)C(=O)NCc2ccccc2)C1 (stereo unspecified)
Endpoint Unit: %
viability: 86.2

Molecule: CC1=C(C(=O)N2CCOCC2)C(c2ccsc2)C2=C(CCCC2=O)N1 (stereo unspecified)
Endpoint Unit: %
viability: 90.4

Molecule: O=C(Nc1nccs1)c1ccc(Cl)c(S(=O)(=O)N2CCCCC2)c1
Endpoint Unit: %
viability: 87.2

Molecule: O=C(Nc1ncc2c(n1)CC(c1ccccc1)CC2=O)c1ccco1 (stereo unspecified)
Endpoint Unit: %
viability: 81.8

Molecule: COc1ccccc1-c1noc(-c2ccco2)n1
Endpoint Unit: %
viability: 90.7

Molecule: CCN(CC)S(=O)(=O)c1ccc(F)c(C(=O)NCCC(C)C)c1
Endpoint Unit: %
viability: 90.9

Molecule: CN(CCc1ccccn1)c1ncnc2[nH]ncc12
Endpoint Unit: %
viability: 97.6

Molecule: O=C(CC1CCCCC1)NCc1ccccn1
Endpoint Unit: %
viability: 95.8

Entry source: PubChem BioAssay
